- target-or-system: UniProt:P35968
- Sequence (P35968 whole entry): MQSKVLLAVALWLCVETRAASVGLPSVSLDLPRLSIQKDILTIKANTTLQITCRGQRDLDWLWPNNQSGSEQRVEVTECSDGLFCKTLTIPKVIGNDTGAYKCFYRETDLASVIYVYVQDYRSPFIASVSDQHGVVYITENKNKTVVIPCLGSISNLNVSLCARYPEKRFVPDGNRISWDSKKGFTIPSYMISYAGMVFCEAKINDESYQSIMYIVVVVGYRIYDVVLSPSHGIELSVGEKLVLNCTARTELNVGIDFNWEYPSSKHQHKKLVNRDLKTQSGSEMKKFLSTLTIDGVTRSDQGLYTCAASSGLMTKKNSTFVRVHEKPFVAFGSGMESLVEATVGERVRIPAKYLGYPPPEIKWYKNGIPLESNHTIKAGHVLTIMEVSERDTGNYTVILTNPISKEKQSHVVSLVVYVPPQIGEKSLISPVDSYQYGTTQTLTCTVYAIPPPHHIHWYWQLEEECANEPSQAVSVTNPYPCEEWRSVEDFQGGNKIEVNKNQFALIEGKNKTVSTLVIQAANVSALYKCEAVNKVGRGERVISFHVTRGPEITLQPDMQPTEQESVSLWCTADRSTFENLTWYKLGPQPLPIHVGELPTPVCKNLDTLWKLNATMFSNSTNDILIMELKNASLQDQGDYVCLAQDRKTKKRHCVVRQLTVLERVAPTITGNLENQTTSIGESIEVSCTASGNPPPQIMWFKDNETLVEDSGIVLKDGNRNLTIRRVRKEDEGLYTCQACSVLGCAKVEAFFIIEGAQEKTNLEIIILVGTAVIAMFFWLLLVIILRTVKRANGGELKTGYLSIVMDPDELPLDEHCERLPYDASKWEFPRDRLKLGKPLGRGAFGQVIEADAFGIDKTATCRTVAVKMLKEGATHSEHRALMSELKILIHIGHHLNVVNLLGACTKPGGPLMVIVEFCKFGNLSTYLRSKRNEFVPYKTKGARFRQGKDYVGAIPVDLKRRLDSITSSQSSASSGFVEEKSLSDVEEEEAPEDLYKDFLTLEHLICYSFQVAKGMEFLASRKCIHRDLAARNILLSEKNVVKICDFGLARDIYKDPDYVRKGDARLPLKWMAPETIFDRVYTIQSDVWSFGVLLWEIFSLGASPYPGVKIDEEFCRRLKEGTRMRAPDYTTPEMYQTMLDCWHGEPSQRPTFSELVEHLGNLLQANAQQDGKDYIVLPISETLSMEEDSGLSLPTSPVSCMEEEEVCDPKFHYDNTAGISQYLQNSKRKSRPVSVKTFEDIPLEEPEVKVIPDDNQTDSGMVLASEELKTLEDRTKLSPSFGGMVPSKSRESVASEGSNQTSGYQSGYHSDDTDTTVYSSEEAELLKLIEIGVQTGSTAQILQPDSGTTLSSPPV
IC50 values, listed per item
recorded-endpoint: IC50 (nM)

smiles-input: Cn1ccc2ncnc(Oc3ccc(NC(=O)Nc4cnn(C(C)(C)C)c4)c(Cl)c3)c21
target-or-system: UniProt:P35968
value-reported: 7.6
//
smiles-input: Cn1ccc2ncnc(Oc3ccc(NC(=O)Nc4ccnc(C(F)(F)F)c4)c(Cl)c3)c21
target-or-system: UniProt:P35968
value-reported: 3.8
//
smiles-input: Cn1nc(C(C)(C)C)cc1NC(=O)Nc1ccc(Oc2ncnc3ccn(C)c23)cc1Cl
target-or-system: UniProt:P35968
value-reported: 19
//
smiles-input: Cn1ccc2ncnc(Oc3ccc(NC(=O)Nc4ccc(CN5CCOCC5)c(C(F)(F)F)c4)c(Cl)c3)c21
target-or-system: UniProt:P35968
value-reported: 19
//
smiles-input: CN1CCC(Oc2ccc(NC(=O)Nc3ccc(Oc4ncnc5ccn(C)c45)cc3Cl)cc2C(F)(F)F)CC1
target-or-system: UniProt:P35968
value-reported: 12
//
smiles-input: Cn1ccc2ncnc(Oc3ccc(NC(=O)Nc4cc(CN5CCOCC5)cc(C(F)(F)F)c4)c(Cl)c3)c21
target-or-system: UniProt:P35968
value-reported: 23
//
smiles-input: Cn1ccc2ncnc(Oc3ccc(NC(=O)Nc4ccncc4)c(Cl)c3)c21
target-or-system: UniProt:P35968
value-reported: 650

The reported numbers originate from ChEMBL document CHEMBL1250549.
